Values were extracted from the supplement of paper PMC12645437.

# target of assay: T1, CRBN, Q96SW2;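 further: pooled lentiviral library of zinc finger degron-EGFP fusions in mCherry-positive Jurkat cells, FACS-sorted after compound exposure, with degron abundance counted by next-generation sequencing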
# T1 chain: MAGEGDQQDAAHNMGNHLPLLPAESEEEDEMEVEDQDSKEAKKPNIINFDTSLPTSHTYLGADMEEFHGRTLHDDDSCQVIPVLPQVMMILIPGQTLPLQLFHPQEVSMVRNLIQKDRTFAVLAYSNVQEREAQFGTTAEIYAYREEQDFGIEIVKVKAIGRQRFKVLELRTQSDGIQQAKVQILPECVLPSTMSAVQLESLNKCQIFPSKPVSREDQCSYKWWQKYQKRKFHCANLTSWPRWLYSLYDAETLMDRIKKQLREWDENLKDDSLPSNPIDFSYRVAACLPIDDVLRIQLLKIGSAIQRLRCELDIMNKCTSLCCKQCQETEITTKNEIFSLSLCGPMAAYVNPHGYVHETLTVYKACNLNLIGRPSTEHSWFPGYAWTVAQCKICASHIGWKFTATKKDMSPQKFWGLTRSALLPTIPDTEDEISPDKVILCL
# protocol summary: log2 fold change of degron read counts, EGFP-low vs EGFP+ sorted cells (limma voom), compound-induced degradation; higher = more compound-induced degradation of the degron-EGFP fusion; degrons are variants of IKZF1/3 zinc finger 2; compound dose not given here
# condition label: Jurkat; 18 h; compound: compound 22 (5-morpholino-thalidomide)
Whole data set: some 8,300 sequences, median “log2 fold change of degron read counts, EGFP-low vs EGFP+ sorted cells (limma voom), compound-induced degradation” near -1.1, cut for the highest 2% near 3.2. The sample as a whole holds a higher share of the highest values than the screen did.
Measured log2 fold change of degron read counts accompanies every entry in the list below.

{"biopolymer sequence": "FVCPICGHVFTQKGNLLRHIKL [46F_47V_49P_50I_52G_53H_54V_55F_67L_, Q9UKT9]", "log2 fold change of degron read counts": -1.85}
{"biopolymer sequence": "FGCPICGAIFTQKGNLLRHIKL [46F_47G_49P_50I_52G_53A_54I_55F_67L_, Q9UKT9]", "log2 fold change of degron read counts": 2.51}
{"biopolymer sequence": "FKCPICGAIFTQKGNLLRHIKL [46F_47K_49P_50I_52G_53A_54I_55F_67L_, Q9UKT9]", "log2 fold change of degron read counts": -3.23}
{"biopolymer sequence": "FYCNQCGHGFTQKGNLLRHIKL [46F_47Y_49N_50Q_52G_53H_54G_55F_67L_, Q9UKT9]", "log2 fold change of degron read counts": -2.88}
{"biopolymer sequence": "FECNQCGAYFTQKGNLLRHIKL [46F_47E_49N_50Q_52G_53A_54Y_55F_67L_, Q9UKT9]", "log2 fold change of degron read counts": -2.84}
{"biopolymer sequence": "LFCNQCGFTCTQKGNLLRHIKL [46L_47F_49N_50Q_52G_53F_54T_55C_67L_, Q9UKT9]", "log2 fold change of degron read counts": -0.778}
